# experiment.description: physchem
reported.metric: pKa

Consider the following illustrative entries.
CC(C)N1CCC(Oc2ccc3[nH]c(C(=O)N4CCC(O)C4)cc3c2)CC1 (stereo not given): 9.8
O=C(c1cc2cc(OC3CCN(C4CCC4)CC3)ccc2n1CC(F)(F)F)N1CCOCC1: 9.1
CC(C)N1CCC(Oc2cc3[nH]c(C(=O)N4CCOCC4)cc3cc2F)CC1: 9.5

(a) CC(C)N1CCC(Oc2ccc3[nH]c(C(=O)N4CCCC(F)(F)C4)cc3c2)CC1
(b) O=C(c1ccc2c(c1)cc(C(=O)N1CCOCC1)n2CC(F)(F)F)N1CCN(C2CCC2)CC1
Between a and b , which one shows the larger pKa value? Label of pick, please.
a
(a: 10, b: 6.8)
